Give viability change, negative = cytotoxic for every item shown.
Assay: qHTS RealTime-Glo MT Cell Viability Assay in HepG2 cells - 8 hour (AID 1224873); note: % is set by controls: 0 for no effect and ±100 for the full control effect; nearly all actives have a fitted effect of over 55% in size
Conditions: RealTime-Glo luminescence; series mostly up to 76.8 µM
Results filed as inconclusive are left out. Activity calls are given as the source filed them. Calls come from the whole dose curve; as a rule, active = well fitted cell-killing curve with a large enough effect in the repeat runs; inconclusive = weak or mixed curves; inactive = flat fitted curve, though single readings scatter.

Ask: For the compound CCC(=O)CC(C)CC (stereo unspecified) , what viability change, negative = cytotoxic is on record?
Reply: 1.82% [at 0.29 µM] (inactive)

Ask: For the compound `O=S(=O)(O)c1cc(S(=O)(=O)O)c2ccc3c(S(=O)(=O)O)cc(S(=O)(=O)O)c4ccc1c2c43` , what viability change, negative = cytotoxic is on record?
Reply: 0.921% [at 15.8 µM] (inactive)

Ask: For the compound `C=CC(=C)CC/C=C(\C)CCC=C(C)C` , what viability change, negative = cytotoxic is on record?
Reply: 1.83% [at 15.8 µM] (inactive)

Ask: For the compound `O=S(O)O` , what viability change, negative = cytotoxic is on record?
Reply: 3.13% [at 15.8 µM] (inactive)

Ask: For the compound `C=C/C=C/C=C/CCCCC` , what viability change, negative = cytotoxic is on record?
Reply: -19.2% [at 15.8 µM] (inactive)

Ask: For the compound `CCCCCCCCCCCCCCCCCO` , what viability change, negative = cytotoxic is on record?
Reply: 4.95% [at 15.8 µM] (inactive)

---

Molecular target: Estrogen receptor (Homo sapiens) (UniProt P03372)
Sequence (P03372 whole entry, looked up): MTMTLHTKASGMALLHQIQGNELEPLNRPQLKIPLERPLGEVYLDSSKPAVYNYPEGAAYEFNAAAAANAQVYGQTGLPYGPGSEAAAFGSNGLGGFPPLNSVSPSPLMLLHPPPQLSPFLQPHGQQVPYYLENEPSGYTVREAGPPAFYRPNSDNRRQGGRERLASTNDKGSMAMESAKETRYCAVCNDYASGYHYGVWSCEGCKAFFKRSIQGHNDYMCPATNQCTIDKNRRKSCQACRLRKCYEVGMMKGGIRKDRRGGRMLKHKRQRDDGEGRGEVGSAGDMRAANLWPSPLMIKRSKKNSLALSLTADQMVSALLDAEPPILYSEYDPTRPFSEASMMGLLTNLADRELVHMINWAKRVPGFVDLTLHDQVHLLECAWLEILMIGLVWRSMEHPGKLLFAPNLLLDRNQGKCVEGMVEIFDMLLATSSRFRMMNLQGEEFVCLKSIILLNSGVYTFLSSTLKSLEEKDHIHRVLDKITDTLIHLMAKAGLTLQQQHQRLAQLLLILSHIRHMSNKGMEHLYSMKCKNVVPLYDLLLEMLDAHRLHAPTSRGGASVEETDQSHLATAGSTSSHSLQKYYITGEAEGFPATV
Experiment: qHTS assay to identify small molecule agonists of the estrogen receptor alpha (ER-alpha) signaling pathway in the presence of an antagonist (AID 1259383); note: top concentration of the series differs between compounds; % is set by controls: 0 for no effect and ±100 for the full control effect; nearly all actives have a fitted effect of over 15% in size
Details: VM7Luc4E2 cells, ERE-luciferase, +ICI-182,780, 22 h; series mostly up to 92.4 µM
Calls of active or inactive are those of the source. Calls come from the whole dose curve.
Measurement label: activation

[
  {
    "Molecule": "COc1cc(C=C2CCC/C(=C\\c3ccc(O)c(OC)c3)C2=O)ccc1O",
    "activation": "inactive"
  },
  {
    "Molecule": "CCCCCCCCCCCCCc1ccccc1",
    "activation": "inactive"
  },
  {
    "Molecule": "Cc1cncc(C)c1",
    "activation": "inactive"
  },
  {
    "Molecule": "NC(=O)C(=O)N/N=C/c1ccc([N+](=O)[O-])o1",
    "activation": "inactive"
  },
  {
    "Molecule": "C=CC/C=C/C/C=C/C/C=C/C",
    "activation": "inactive"
  }
]

Ask: For the molecule `NC(=O)c1nc(-c2cccc(-c3cc(F)ccc3OCC(F)(F)C(F)(F)F)c2)n[nH]1` , what activation is on record?
Reply: inactive

Ask: For the molecule `CC(C)(c1cc(Br)c(OCCO)c(Br)c1)c1cc(Br)c(OCCO)c(Br)c1` , what activation is on record?
Reply: inactive

---

Assay: qHTS assay to identify small molecule antagonists of the retinoid-related orphan receptor gamma (ROR-gamma) signaling pathway - cell viability counter screen (AID 1159520); note: nearly all actives have a fitted effect of over 50% in size
Settings: Tet-on RORgamma CHO cells viability, ATP luminescence, 16 h; series mostly up to 92.4 µM
Inconclusive results are not listed. Activity calls are given as the source filed them. The call rests on the fitted dose curve; in most records, active means well fitted cell-killing curve with a large enough effect in the repeat runs; inconclusive means weak or mixed curves, or effect the other way; inactive means no such curve, though single readings can be large or run the other way.
Reply using exactly one outcome from class 1 for active, class 0 for inactive

Ask: How did this test come out for `Cc1cc(=O)[nH]c(=O)[nH]1` ?
Reply: class 0

Ask: How did this test come out for `CC(=O)O[C@@H]1C[C@@H]2CC[C@@]1(C)C2(C)C` ?
Reply: class 0

Ask: How did this test come out for `O=C1NCN(c2ccccc2)C12CCN(CCCC(c1ccc(F)cc1)c1ccc(F)cc1)CC2` ?
Reply: class 1

Ask: How did this test come out for `Clc1cc(Cl)c(-c2c(Cl)c(Cl)cc(Cl)c2Cl)cc1Cl` ?
Reply: class 0

Ask: How did this test come out for `CC(C)N=C(N)/N=C(\N)Nc1ccc(Cl)cc1` ?
Reply: class 0

Ask: How did this test come out for `CCOC(=O)CN` ?
Reply: class 0

Ask: How did this test come out for `O=C1OC(=O)c2cccc3cccc1c23` ?
Reply: class 0

Ask: How did this test come out for `Nc1ncnc2c1ncn2[C@@H]1O[C@H](COP(=O)(O)O)[C@@H](O)[C@H]1O` ?
Reply: class 0

Ask: How did this test come out for `c1cc[nH]c1` ?
Reply: class 0

Ask: How did this test come out for `CC(C)(C)c1n[nH]c(=O)n(N)c1=O` ?
Reply: class 0

Ask: How did this test come out for `Oc1cc2ccccc2cc1O` ?
Reply: class 0

Ask: How did this test come out for `NCCCC(O)(P(=O)(O)O)P(=O)(O)O` ?
Reply: class 0

Ask: How did this test come out for `CCCCCCCCCCc1ccccc1` ?
Reply: class 0

---

Test: qHTS assay to identify small molecule agonists of the constitutive androstane receptor (CAR) signaling pathway - cell viability counter screen (AID 1224836); note: nearly all actives have a fitted effect of over 45% in size
Conditions: HepG2-CYP2B6-hCAR viability, CellTiter-Fluor, 23 h, PK11195 added to every well; series mostly up to 92.4 µM
Results filed as inconclusive are left out. Active and inactive are the calls of the source. Calls follow the shape of the dose curve; as a rule, active = well fitted cell-killing curve with a large enough effect in the repeat runs; inconclusive = weak or mixed curves, or effect the other way; inactive = flat fitted curve, though single readings scatter.
Reply using exactly one outcome from active, inactive

Ask: How did this test come out for CN1CCN(C2Cc3ccccc3Sc3ccc(Cl)cc32)CC1 (stereo not given) ?
Reply: inactive

Ask: How did this test come out for `CCN(CC)c1cccc(C)c1` ?
Reply: inactive

Ask: How did this test come out for `C[Si](C)(C)Cl` ?
Reply: inactive

Ask: How did this test come out for `CC(C)(C)CC(C)(C)c1ccccc1O` ?
Reply: inactive

Ask: How did this test come out for `CCCCCCCOC(=O)c1ccc(O)cc1` ?
Reply: inactive

Ask: How did this test come out for `Clc1nc2ccccc2s1` ?
Reply: inactive

Ask: How did this test come out for `CCCC(=O)OCC(COC(=O)CCC)OC(=O)CCC` ?
Reply: inactive

Ask: How did this test come out for `O=CC1CC1` ?
Reply: inactive

Ask: How did this test come out for CCCC(O)C(O)CO (stereo not given) ?
Reply: inactive

Ask: How did this test come out for `CC(=O)Oc1ccc(C2(c3ccc(OC(C)=O)cc3)C(=O)Nc3ccccc32)cc1` ?
Reply: inactive

Ask: How did this test come out for `C[C@@]12C(=O)OC(=O)[C@]1(C)C1CCC2O1` ?
Reply: active

Ask: How did this test come out for `Oc1c(Br)cc(Br)c2cccnc12` ?
Reply: inactive

Ask: How did this test come out for `CCc1ccc(C)nc1` ?
Reply: inactive

Ask: How did this test come out for `CO[Si](CCCNCCNCCN)(OC)OC` ?
Reply: inactive

Ask: How did this test come out for `C=C(c1ccc(C(=O)O)cc1)c1cc2c(cc1C)C(C)(C)CCC2(C)C` ?
Reply: inactive

Ask: How did this test come out for `CN(Cc1cc(Br)cc(Br)c1N)C1CCCCC1` ?
Reply: inactive

Ask: How did this test come out for `C(=C/c1ccccc1)/c1ccccc1` ?
Reply: inactive

Ask: How did this test come out for `O=C1C=CC(=O)N1c1ccccc1` ?
Reply: active

Ask: How did this test come out for CC1CNCC(C)O1 (stereo not given) ?
Reply: inactive

Ask: How did this test come out for CC1CCCNC1 (stereo not given) ?
Reply: inactive

Ask: How did this test come out for `C=C(C)CCCC` ?
Reply: inactive

Ask: How did this test come out for `Cc1cccc(Br)c1` ?
Reply: inactive

Ask: How did this test come out for CCC(C)C(=O)OC (stereo not given) ?
Reply: inactive

Ask: How did this test come out for `CCCCCCCC(=O)OCC` ?
Reply: inactive

Ask: How did this test come out for `c1ccc(Nc2cccc3ccccc23)cc1` ?
Reply: inactive

Ask: How did this test come out for `CC(=O)Oc1ccc(C2(c3ccc(OC(C)=O)cc3)Oc3ccccc3NC2=O)cc1` ?
Reply: inactive

Ask: How did this test come out for `CC(=O)O[C@@H]1C[C@@H]2CC[C@@]1(C)C2(C)C` ?
Reply: inactive

Ask: How did this test come out for CCNc1nc(NC(C)CC)nc(OC)n1 (stereo not given) ?
Reply: inactive

Ask: How did this test come out for `CCC1(c2cnc[nH]2)Cc2ccccc2C1` ?
Reply: inactive

Ask: How did this test come out for `CC(C)(C)c1cc(CCC(=O)NCCCCCCNC(=O)CCc2cc(C(C)(C)C)c(O)c(C(C)(C)C)c2)cc(C(C)(C)C)c1O` ?
Reply: inactive

---

Give viability change, negative = cytotoxic for every item shown.
Assay: qHTS assay to identify small molecule antagonists of the androgen receptor (AR) signaling pathway using the MDA cell line in the presence of 0.5 nM R1881 - cell viability counter screen (AID 1259242); note: % is set by controls: 0 for no effect and ±100 for the full control effect; nearly all actives have a fitted effect of over 45% in size
Settings: MDA-kb2 viability, CellTiter-Fluor protease fluorescence, 16 h; series mostly up to 92.4 µM
Inconclusive results are not listed. Activity calls are given as the source filed them. Calls follow the shape of the dose curve; as a rule, active = well fitted cell-killing curve with a large enough effect in the repeat runs; inconclusive = weak or mixed curves, or effect the other way; inactive = flat fitted curve, though single readings scatter.

Ask: For the compound `O=C=NCc1cccc(CN=C=O)c1` , what viability change, negative = cytotoxic is on record?
Reply: -0.671% [at 19 µM] (inactive)

Ask: For the compound `CCCCCCCCCCCCCCCCCO` , what viability change, negative = cytotoxic is on record?
Reply: -1.99% [at 19 µM] (inactive)

Ask: For the compound `C=C/C=C/C=C/CCCCC` , what viability change, negative = cytotoxic is on record?
Reply: -0.871% [at 19 µM] (inactive)

Ask: For the compound `O=S(O)O` , what viability change, negative = cytotoxic is on record?
Reply: 4.5% [at 19 µM] (inactive)

Ask: For the compound `C=CC(=C)CC/C=C(\C)CCC=C(C)C` , what viability change, negative = cytotoxic is on record?
Reply: 2.29% [at 19 µM] (inactive)

Ask: For the compound `N[C@@H](CSSC[C@H](N)C(=O)O)C(=O)O` , what viability change, negative = cytotoxic is on record?
Reply: -1.71% [at 0.349 µM] (inactive)

Ask: For the compound `O=S(=O)(O)c1cc(S(=O)(=O)O)c2ccc3c(S(=O)(=O)O)cc(S(=O)(=O)O)c4ccc1c2c43` , what viability change, negative = cytotoxic is on record?
Reply: -1.34% [at 19 µM] (inactive)

Ask: For the compound `COc1cc(C(C)C)c2c(c1)S(=O)(=O)N(COc1cc(=O)n3cccc(OCCN4CCCCC4)c3n1)C2=O` , what viability change, negative = cytotoxic is on record?
Reply: -2.69% [at 19 µM] (inactive)

Ask: For the compound CCC(=O)CC(C)CC (centres undefined) , what viability change, negative = cytotoxic is on record?
Reply: 2.57% [at 0.349 µM] (inactive)
